meta.source: ChEMBL document CHEMBL1158114

Tested on: Escherichia coli
measurement-protocol: Antibacterial activity against Escherichia coli ATCC 25922
Format: functional
measurement-label: MIC (µg/mL)
Kindly provide the numeric value in µg/mL only, without the unit symbol.

Prompt: Tell me the measured MIC of CC(=O)OC[C@H]1O[C@@H](O[C@@H]2[C@@H](O)[C@H](C)O[C@@H](Oc3ccc(O)cc3[C@@H]3CC(=O)c4c(O)cc(O)cc4O3)[C@@H]2OC(C)=O)[C@H](OC(C)=O)[C@@H](O)[C@@H]1O , please.
Completion: 64

Prompt: // next record CC[C@H]1OC(=O)[C@H](C)[C@@H](O[C@H]2C[C@@](C)(OC)[C@@H](O)[C@H](C)O2)[C@H](C)[C@@H](O[C@@H]2O[C@H](C)C[C@H](N(C)C)[C@H]2O)[C@](C)(O)C[C@@H](C)CN(C)[C@H](C)[C@@H](O)[C@]1(C)O [AZITHROMYCIN]
Completion: 0.5

Prompt: Please give the result for CC(=O)OC[C@H]1O[C@@H](O[C@@H]2[C@@H](O)[C@H](C)O[C@@H](Oc3ccc(O)cc3[C@@H]3CC(=O)c4c(O)cc(O)cc4O3)[C@@H]2OC(C)=O)[C@H](O)[C@@H](O)[C@@H]1OC(C)=O too.
Completion: 64

Prompt: Note, next up: C[C@@H]1O[C@@H](Oc2ccc(O)cc2[C@@H]2CC(=O)c3c(O)cc(O)cc3O2)[C@H](O)[C@H](O[C@@H]2O[C@H](CO)[C@@H](O)[C@H](O)[C@H]2O)[C@H]1O
Completion: 64

Prompt: Request: CC(=O)O[C@H]1[C@H](Oc2ccc(O)cc2[C@@H]2CC(=O)c3c(O)cc(O)cc3O2)O[C@@H](C)[C@H](O)[C@H]1O[C@@H]1O[C@H](CO)[C@@H](O)[C@H](O)[C@H]1O
Completion: 64

Prompt: Same again, this time with CC(=O)OC[C@H]1O[C@@H](O[C@@H]2[C@@H](O)[C@H](C)O[C@@H](Oc3ccc(O)cc3[C@@H]3CC(=O)c4c(O)cc(O)cc4O3)[C@@H]2OC(C)=O)[C@H](O)[C@@H](O)[C@@H]1O
Completion: 64

----------
Tested on: Escherichia coli
measurement-protocol: Antibacterial activity against Escherichia coli ATCC 25922
Format: functional
measurement-label: MIC (µg/mL)
Record the value in µg/mL, omitting the unit from your answer.

Here's what some known entries look like.
compound	number
CC(=O)OC[C@H]1O[C@@H](O[C@@H]2[C@@H](O)[C@H](C)O[C@@H](Oc3ccc(O)cc3[C@@H]3CC(=O)c4c(O)cc(O)cc4O3)[C@@H]2OC(C)=O)[C@H](O)[C@@H](OC(C)=O)[C@@H]1O	64
CC(=O)OC[C@H]1O[C@@H](O[C@@H]2[C@@H](O)[C@H](C)O[C@@H](Oc3ccc(O)cc3[C@@H]3CC(=O)c4c(O)cc(O)cc4O3)[C@@H]2OC(C)=O)[C@H](O)[C@@H](OC(C)=O)[C@@H]1OC(C)=O	64

Prompt: I am curious: what MIC value has been reported for CC[C@H]1OC(=O)[C@H](C)[C@@H](O[C@H]2C[C@@](C)(OC)[C@@H](O)[C@H](C)O2)[C@H](C)[C@@H](O[C@@H]2O[C@H](C)C[C@H](N(C)C)[C@H]2O)[C@](C)(O)C[C@@H](C)C(=O)[C@H](C)[C@@H](O)[C@]1(C)O [ERYTHROMYCIN] ?
Completion: 0.25
